Quick reference: abundance fitness of the listed items.
B1: Protein piccolo, residues 1058 to 1114; numbered along this chain, Q9Y6V0 (parent)
chain: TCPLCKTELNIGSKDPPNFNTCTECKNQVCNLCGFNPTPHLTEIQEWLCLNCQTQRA

- Variants of: B1
- PROCEDURE_SUMMARY: abundance fitness (aPCA) (normalised: wild type 0, dead -1); higher = more abundant; growth selection in yeast, the domain comes from the species named
- STATED_CONDITIONS: Homo sapiens
TEST_READOUT: abundance fitness

>>> measured("L9V")
-0.056
>>> measured("P3E")
-0.32
>>> measured("F19E")
-0.153
>>> measured("C2V")
-1.11
>>> measured("T42H")
0.123
>>> measured("C33Q")
-0.623
>>> measured("P16N")
-0.229
>>> measured("W47D")
0.006
>>> measured("L32G")
0.279
>>> measured("T23A")
0.097
>>> measured("L41E")
-0.015
>>> measured("L48S")
-0.063
>>> measured("V29W")
-0.131
>>> measured("Q45E")
-0.38
>>> measured("C52M")
-0.981
>>> measured("L41K")
0.176
>>> measured("L41V")
0.044
>>> measured("T42C")
0.064
>>> measured("I11W")
-0.333
>>> measured("P37V")
0.14
>>> measured("T54N")
0.296
>>> measured("N36T")
-0.28
>>> measured("C33T")
-0.952
>>> measured("L41R")
0.2
>>> measured("F19L")
-0.151
>>> measured("H40S")
0.156
>>> measured("N31Y")
0.011
>>> measured("Q28R")
0.004
>>> measured("S13R")
-0.264
>>> measured("N18Y")
-0.094
>>> measured("P37K")
-0.054
>>> measured("T42W")
-0.166
>>> measured("E8W")
-0.517
>>> measured("P3K")
-0.248
>>> measured("K14T")
0.013
>>> measured("C52E")
-0.448
>>> measured("T42L")
-0.091
>>> measured("C33A")
-0.588
>>> measured("P37R")
0.032
>>> measured("P16L")
-0.095
>>> measured("I11P")
0.11
>>> measured("T7Q")
0.019
>>> measured("I11H")
0.054
>>> measured("C52K")
-0.801
